Tested on: Amaranthus retoflexus (AMARE)
Assay: Pre-emergence biological efficacy (percentage damage)
Assay type: in vivo
Details: Amaranthus retroflexus, 312 h, dose 1,000 g/ha, evaluated after 13 days, 100=total damage, 0=no damage
Label key: 1 means pest or weed control at 1000 g/ha under 90%; -1 means pest or weed control at 1000 g/ha of 90% or more.

Before answering, review these 4 worked examples.
Ask: In the record for CC(O)c1c(N)nc(-c2ccc(C(F)(F)F)cc2)nc1CO (stereo not shown) , is pest or weed control at 1000 g/ha less than 90%?
Reply: 1

Ask: Next molecule up: C=Cc1c(C(=O)OC)nc(C2CC2)nc1N(C)C
Reply: 1

Ask: // repeat for C=Cc1c(N)nc(-c2ccc(Cl)c(N(C)C)c2F)nc1C(=O)OCc1ccccc1 and report
Reply: -1

Ask: Quick one: C=Cc1c(N)nc(SC)nc1OCC(=O)OC
Reply: 1

Further cases:
Ask: Here's an entry: C=CCOC(=O)c1nc(-c2ccc(Cl)c(N(C)C)c2F)nc(N)c1C=C . Is its pest or weed control at 1000 g/ha below 90%?
Reply: -1

Ask: Same thing, different molecule: C=Cc1c(N)nc(-c2ccc3c(c2)OCCO3)nc1C(=O)OC
Reply: 1

Ask: Also C=Cc1c(N)nc(-c2ccc(Cl)cc2)nc1C(=O)OC ?
Reply: -1

Ask: Then what about the molecule C=Cc1c(N)nc(-c2ccc(F)cc2)nc1C(=O)OC ?
Reply: -1

Ask: Next up: C=C(C)c1c(N)nc(C2CC2)nc1C(=O)OC
Reply: -1

Ask: Now try C/C=C/c1c(N)nc(-c2ccc(C(F)(F)F)cc2)nc1C(=O)OC .
Reply: 1

Ask: Another: C=Cc1c(N)nc(-c2ccc(Cl)c(N(C)C)c2F)nc1C(=O)OC
Reply: 1

Ask: Could you do the same for C=Cc1c(N)nc(-c2ccc(Cl)c(F)c2)nc1C(=O)OC , please?
Reply: -1

Ask: Another molecule to look at: C=Cc1c(N)nc(-c2ccc(Cl)c(OC)c2F)nc1C(=O)OC
Reply: -1

Ask: // same read-out, input: C=Cc1c(N)nc(-c2ccc(C)cc2)nc1C(=O)OC
Reply: -1

Ask: How about this molecule: COC(=O)c1nc(-c2ccc(Cl)c(N(C)C)c2F)nc(N)c1C(C)=O
Reply: 1

Ask: Try the molecule C=Cc1c(N)nc(-c2ccc(Cl)c(OC)c2)nc1C(=O)OC
Reply: -1

Ask: Now the same for C=Cc1c(OC)nc(-c2ccc(Cl)c(OC)c2F)nc1C(=O)OC
Reply: 1

Data origin: patent US20120053053A1
